What follows is a collection of Ki values obtained with Prothrombin (Rattus norvegicus).
assay-readout: Ki (nM)

Here are 2 molecules together with their reported answers.
1. O=C(NCc1ccc2nc[nH]c2c1)[C@@H]1CC[C@H]2CN(S(=O)(=O)Cc3ccccc3)CC(=O)N21	1000
2. N[C@H]1CC[C@H](CNC(=O)C2CC[C@H]3CN(S(=O)(=O)Cc4ccccc4)CC(=O)N23)CC1 (some centres undefined)	100

1. N=C(N)N1CCC(CNC(=O)[C@@H]2CC[C@H]3CN(S(=O)(=O)Cc4ccccc4)CC(=O)N32)CC1
2. O=C(NC[C@H]1CC[C@H](NO)CC1)[C@@H]1CC[C@H]2CN(S(=O)(=O)Cc3ccccc3)CC(=O)N21
Lowest Ki? choose 1 or 2 To answer, give the label that identifies your chosen option.
1
